Values compiled from patent US20070219186A1.

# Study System: human B-Raf (Homo sapiens, UniProt P15056)
# Construct: Flag; GST; made in house; host or cells: Sf9 insect cells (B-Raf); E. coli (MEK1-GST)
# Sequence (P15056 whole entry): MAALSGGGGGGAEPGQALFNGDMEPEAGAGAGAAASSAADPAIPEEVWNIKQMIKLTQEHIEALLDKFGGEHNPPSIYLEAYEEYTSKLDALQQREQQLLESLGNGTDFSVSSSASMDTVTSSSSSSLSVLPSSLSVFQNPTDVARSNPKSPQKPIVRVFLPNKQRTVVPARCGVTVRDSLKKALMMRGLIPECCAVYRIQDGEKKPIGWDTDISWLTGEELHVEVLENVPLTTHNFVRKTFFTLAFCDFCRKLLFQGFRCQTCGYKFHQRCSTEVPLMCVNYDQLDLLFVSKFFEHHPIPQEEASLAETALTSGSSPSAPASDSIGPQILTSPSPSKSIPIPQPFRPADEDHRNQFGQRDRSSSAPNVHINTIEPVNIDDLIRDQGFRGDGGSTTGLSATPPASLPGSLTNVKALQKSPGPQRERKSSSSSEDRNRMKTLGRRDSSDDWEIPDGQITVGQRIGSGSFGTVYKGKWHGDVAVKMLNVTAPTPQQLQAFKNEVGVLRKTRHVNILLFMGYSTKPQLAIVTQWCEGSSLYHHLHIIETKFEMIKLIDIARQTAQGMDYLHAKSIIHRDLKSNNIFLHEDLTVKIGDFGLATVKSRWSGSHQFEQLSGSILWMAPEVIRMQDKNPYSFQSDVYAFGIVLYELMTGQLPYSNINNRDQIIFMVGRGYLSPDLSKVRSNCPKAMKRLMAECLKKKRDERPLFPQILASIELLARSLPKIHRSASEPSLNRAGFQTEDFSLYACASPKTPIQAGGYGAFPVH
# Assay Info: B-Raf Kinase to MEK1 ELISA
# Assay type: biochemical
# Reported Conditions: median; cpd concentrations from 10 μM to 30 nM in half log dilutions; read-out: Median IC50
Measurement Label: IC50 (µM)

| Smiles Entry | Reported |
| --- | --- |
| O=C(Nc1cccc(-c2ccnc3cc(N4CCOCC4)nn23)c1)c1ccc(Cl)c(C(F)(F)F)c1 | 0.2 |
| CCOC(=O)c1cnn2c(-c3cccc(NC(=O)c4nccc5ccccc45)c3)ccnc12 | 4.49 |
| CCOC(=O)c1cnn2c(-c3cccc(NC(=O)c4ccc(OC)c(C(F)(F)F)c4)c3)ccnc12 | 1.3 |
| COCCCNC(=O)c1cnn2c(-c3cccc(NC(=O)Nc4ccc(Cl)c(C(F)(F)F)c4)c3)ccnc12 | 0.19 |
| CCOC(=O)c1cnn2c(-c3cc(NC(=O)c4cccc(C(F)(F)F)c4)ccc3[N+](=O)[O-])ccnc12 | 0.41 |
| CCOC(=O)c1cnn2c(-c3cccc(NC(=O)c4cc(C(F)(F)F)ccc4C)c3)ccnc12 | 10.1 |

I: O=C(Nc1cccc(-c2ccnc3cc(N4CCOCC4)nn23)c1)Nc1cccc(C(F)(F)F)c1
II: Cc1cnc2cc(-c3ccncc3)nn2c1-c1cccc(NC(=O)c2cccc(C(F)(F)F)c2)c1
Field: entry with larger IC50 (options I / II ). // output: label of the selected item II
